- MEASUREMENT NOTES: collision cross section in nitrogen (drift tube, single-field); higher = larger gas-phase ion size;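 note: chemical standards at 10 µM analysed by drift tube IMS-QTOF MS in about 3.95 torr nitrogen, mean of duplicate injections differing ≤1%, mass error below 10 ppm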
- CONDITION NOTES: ion type: [M+Na]; ion source: ESI; ion mode: Positive
Where a name gives a salt, the structure may show the parent alone.
ASSAY READOUT: collision cross section in nitrogen
A complete answer gives the number followed by the unit.

{"columns": ["MOLECULE", "collision cross section in nitrogen"],
 "data": [
  ["CC1(c2ccc(Oc3ccccc3)cc2)OC(=O)N(Nc2ccccc2)C1=O (stereo unspecified) [Famoxadone]", "210.6 Å²"],
  ["COC(=O)C1=C(C)NC(C)=C(C(=O)OCC(C)C)C1c1ccccc1[N+](=O)[O-] (stereo unspecified) [Nisoldipine]", "195.5 Å²"],
  ["CNC(=O)ON=CC(C)(C)S(C)=O (stereo unspecified) [Aldicarb sulfoxide]", "147.4 Å²"],
  ["CN(C)c1nc(=O)n(C2CCCCC2)c(=O)n1C [Hexazinone]", "176.3 Å²"],
  ["COc1cccc(C(=O)NN(C(=O)c2cc(C)cc(C)c2)C(C)(C)C)c1C [Methoxyfenozide]", "201.9 Å²"],
  ["CCN(CC)CCNC(=O)c1c(C)[nH]c(/C=C2\\C(=O)Nc3ccc(F)cc32)c1C [Sunitinib malate]", "214.3 Å²"],
  ["CCCCC(CC)COP(=O)(O)OCC(CC)CCCC (stereo unspecified) [Bis(2-ethylhexyl) phosphate]", "201 Å²"],
  ["OCC(CO)n1cnc(-c2ccc(F)cc2)c1-c1ccnc(Oc2ccccc2)n1", "191 Å²"],
  ["CO[C@@H]1COCC[C@@H]1N[C@@H]1CC[C@@](C(=O)N2CCc3ncc(C(F)(F)F)cc3C2)(C(C)C)C1 [MK-812]", "219.6 Å²"],
  ["O=C(OCCOCCOCCOC(=O)c1ccccc1)c1ccccc1 [Ethylenebis(oxyethylene) dibenzoate]", "189.7 Å²"]
]}

# batch size: 7; output collision cross section in nitrogen per entry
1. C=CC(=O)OCCOC(=O)CCC(=O)O [Acryloyloxyethyl succinate]
2. CC(=O)CCCCn1c(=O)c2c(ncn2C)n(C)c1=O [3,7-Dihydro-3,7-dimethyl-1-(5-oxohexyl)-1H-Purine-2,6-dione]
3. CCCCCOC(=O)COc1cc(N2C(=O)C3=C(CCCC3)C2=O)c(F)cc1Cl [Flumiclorac-pentyl]
4. CCCCCCOCCOCCO [2-[2-(Hexyloxy)ethoxy]ethanol]
5. CCc1c(C(=O)O)c(=O)cnn1-c1ccc(Cl)cc1 [Clofencet-potassium]
6. CCCCC(O)(Cn1cncn1)c1ccc(Cl)cc1Cl (stereo unspecified) [Hexaconazole]
7. CC(C)(C)N(NC(=O)c1ccc(Cl)cc1)C(=O)c1ccccc1 [Halofenozide]

(A)
1: 145.9 Å²; 2: 172 Å²; 3: 209.5 Å²; 4: 151.8 Å²; 5: 175.3 Å²; 6: 187 Å²; 7: 188.3 Å²

# batch size: 6; output collision cross section in nitrogen per entry
1. NCCOCCOCCN [2,2'-[Ethane-1,2-diylbis(oxy)]diethanamine]
2. O=c1[nH]c2ccccc2n1C1CCN(CCCC(c2ccc(F)cc2)c2ccc(F)cc2)CC1 [Pimozide]
3. Cc1cnc(NC(=O)C2=C(O)c3ccccc3S(=O)(=O)N2C)s1 [Meloxicam]
4. CCOP(=S)(OCC)Oc1nc(Cl)n(C(C)C)n1 [Isazofos]
5. CN(C)C(=O)NC1(c2ccccc2)CCN(CC[C@@]2(c3ccc(F)c(F)c3)CN(C(=O)c3ccccc3)CCO2)CC1
6. C=CC(=O)OCCOCCOCC [2-(2-Ethoxyethoxy)ethyl acrylate]

(A)
1: 132.4 Å²; 2: 217.6 Å²; 3: 184.2 Å²; 4: 174.8 Å²; 5: 243 Å²; 6: 142.6 Å²

# batch size: 6; output collision cross section in nitrogen per entry
1. OCCOCCOCCOCCOCCO [Pentaethylene glycol]
2. CNC(=C[N+](=O)[O-])NCCSCc1ccc(CN(C)C)o1 [Ranitidine]
3. CC(C)OC(=O)C(C)N(C(=O)c1ccccc1)c1ccc(F)c(Cl)c1 (stereo unspecified) [Flamprop-isopropyl]
4. CCCCc1c(C)nc(NCC)nc1O [Ethirimol]
5. CCCN(C1CCN(C(=O)C2CCNCC2)CC1)[C@@H]1CCc2ccc(OC)cc2C1
6. C[N+](C)(C)CC(=O)[O-] [Betaine]

(A)
150.1 Å²
176.2 Å²
193.4 Å²
167.3 Å²
201 Å²
133.3 Å²

# batch size: 6; output collision cross section in nitrogen per entry
1. Cc1ncc(CO)c(CO)c1O [Pyridoxine hydrochloride]
2. Cc1cc(SC2=C(O)C[C@@](CCc3ccc(N)cc3)(C(C)C)OC2=O)c(C(C)(C)C)cc1CO [CI-1029]
3. CC1=C(C(=O)Nc2ccccc2)SCCO1 [Carboxin]
4. N#C/N=C1\SCCN1Cc1ccc(Cl)nc1 [Thiacloprid]
5. COCCOc1cc2cc(C(=O)NC3CCN(C(C)C)CC3)n(CC(=O)Nc3ccc(Cl)cn3)c2cn1
6. CCCCN(CCCC)SN(C)C(=O)Oc1cccc2c1OC(C)(C)C2 [Carbosulfan]

(A)
1: 144 Å²; 2: 210.5 Å²; 3: 165.7 Å²; 4: 174.2 Å²; 5: 239.2 Å²; 6: 204.7 Å²

(Q) Name the reported collision cross section in nitrogen value associated with the molecule CCOC(=O)CC(O)(CC(=O)OCC)C(=O)OCC [Triethyl citrate]
(A) 169.1 Å²

====

- MEASUREMENT NOTES: collision cross section in nitrogen (drift tube, single-field); higher = larger gas-phase ion size
- CONDITION NOTES: ion type: [M-H]; ion source: ESI; ion mode: Negative
ASSAY READOUT: collision cross section in nitrogen (Å²)
Give bare numbers, in Å².

# batch size: 5; output collision cross section in nitrogen per entry
1. [O-][Cl+]O [Sodium chlorite]
2. Cc1cc(O)c2c(c1)C(=O)c1cc(O)cc(O)c1C2=O
3. Oc1cc(O)cc(O)c1 [1,3,5-Trihydroxybenzene dihydrate]
4. Cc1cc(O)ccc1Cl
5. O=C(N[C@@H](Cc1ccccc1)[C@@H](O)C(=O)N1C[C@@H](O)[C@@H](O)C1)c1cc2cc(Cl)ccc2[nH]1

(A)
1. 105.2
2. 154.6
3. 121.6
4. 125.9
5. 206.2

====

Consider the following compounds; for each one, report its collision cross section in nitrogen.
- MEASUREMENT NOTES: collision cross section in nitrogen (drift tube, single-field); higher = larger gas-phase ion size
- CONDITION NOTES: ion type: [M+H]; ion source: ESI; ion mode: Positive
Where a name gives a salt, the structure may show the parent alone.
Answers are plain numbers, in Å².

{"columns": ["COMPOUND", "ASSAY READOUT", "RESULT UNIT", "VALUE REPORTED"],
 "data": [
  ["Cc1ccc(N)cc1O [5-Amino-2-methylphenol]", "collision cross section in nitrogen", "Å²", 123.5],
  ["CNC[C@H](O)[C@@H](O)[C@H](O)[C@H](O)CO [(2R,3R,4R,5S)-6-(Methylamino)hexane-1,2,3,4,5-pentol]", "collision cross section in nitrogen", "Å²", 141.3]
]}

# batch size: 6; output collision cross section in nitrogen per entry
1. CCOP(=S)(OCC)Oc1cc(C)nc(N(CC)CC)n1 [Pirimiphos-ethyl]
2. CC(=O)c1ccc2c(c1)[C@H](NC(=O)c1ccc(F)cc1)[C@@H](O)C(C)(C)O2 [Carabersat]
3. COc1cnccc1O [4-Hydroxy-3-methoxypyridine]
4. COc1cc(NC(=O)CC(C)=O)c(OC)cc1Cl [4'-Chloro-2',5'-dimethoxyacetoacetanilide]
5. COc1ccc(N)c(C)c1 [4-Methoxy-2-methylaniline]
6. N=C(N)NC(=N)NCCc1ccccc1

(A)
1: 178.3; 2: 183.9; 3: 121.8; 4: 160.8; 5: 135.7; 6: 146.3

# batch size: 3; output collision cross section in nitrogen per entry
1. O=C1C[C@@H]2OCC=C3CN4CC[C@]56c7ccccc7N1[C@H]5[C@H]2[C@H]3C[C@H]46 [Strychnine hemisulphate salt]
2. CC1(C)CN=C(NN=C(C=Cc2ccc(C(F)(F)F)cc2)C=Cc2ccc(C(F)(F)F)cc2)NC1 [Hydramethylnon]
3. CC1(C(=O)Nc2ccc(O)c(Cl)c2Cl)CCCCC1 [Fenhexamid]

(A)
175.8
240.6
166.4

====

- MEASUREMENT NOTES: collision cross section in nitrogen (drift tube, single-field); higher = larger gas-phase ion size
- CONDITION NOTES: ion type: [M+Na]; ion source: ESI; ion mode: Positive
Consider the following compounds; for each one, report its collision cross section in nitrogen.
Numbers only, in Å².

Solved cases (8 shown):
{"columns": ["COMPOUND", "RESULT UNIT", "VALUE REPORTED"],
 "data": [
  ["OC(Cn1cncn1)(c1ccc(F)cc1)c1ccccc1F (stereo not drawn)", "Å²", 183.1],
  ["COc1nc(NC(C)C)nc(NC(C)C)n1", "Å²", 173.7],
  ["COC(=O)N(C(=O)N1CO[C@@]2(C(=O)OC)Cc3cc(Cl)ccc3C2=N1)c1ccc(OC(F)(F)F)cc1", "Å²", 220.4],
  ["C[C@H](CCC(=O)NCC(=O)O)[C@H]1CC[C@H]2[C@@H]3[C@H](O)C[C@@H]4C[C@H](O)CC[C@]4(C)[C@H]3C[C@H](O)[C@]12C", "Å²", 201.7],
  ["COCc1cnc(C2=NC(C)(C(C)C)C(=O)N2)c(C(=O)O)c1 (stereo not drawn)", "Å²", 188.9],
  ["Cc1cnc2c(C(=O)O)c(Cl)ccc2c1", "Å²", 158],
  ["CCCCOCCOCCOCCO [2-[2-(2-Butoxyethoxy)ethoxy]ethanol]", "Å²", 150.9],
  ["CC1CN1P(=O)(N1CC1C)N1CC1C (stereo not drawn)", "Å²", 159.9]
]}

# batch size: 5; output collision cross section in nitrogen per entry
1. CC(=O)OCCN(CCOC(C)=O)c1ccc(N=Nc2ccc([N+](=O)[O-])cc2C#N)cc1
2. COc1ccc(-c2ccccc2)cc1NNC(=O)OC(C)C [Bifenazate]
3. Nc1cccc(S(=O)(=O)c2cccc(N)c2)c1
4. Cc1cc(OC(=O)N(C)C)nn1C(=O)N(C)C
5. CC(C)(O)c1ccc(CNC(=O)c2cccnc2Oc2ccc3nonc3c2)cc1

(A)
1: 201.3; 2: 185.7; 3: 172.6; 4: 157.9; 5: 191.5
